- assay: binders of probe aFGF2 on microarray, primary screen, stem cell growth factor project, biochemical, small-molecule microarray, fluorescence 635/667 (AID 1067);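 also: measures binding of biotinylated aFGF2 protein to printed compounds on slides; z-score merges feature fluorescence and signal-to-noise across triplicate slides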
- protocol conditions: higher = more signal
readout kind: composite z-score
Please give the numeric answer without any surrounding text.

Some compounds with known composite z-score results, for comparison:
[[record]]
compound = "Cc1ccc(S(=O)(=O)c2cc3oc2CC[C@@H](CO)NC(=O)N(C)Cc2cn(nn2)C[C@H](Cc2ccccc2)NC3=O)cc1"
readout_kind = "composite z-score"
quantitative_readout = -0.0538

[[record]]
compound = "COc1ccc([C@H]2C[C@H]3C(Br)=C[C@]2(OC)C(=O)[C@]32CO2)cc1"
readout_kind = "composite z-score"
quantitative_readout = -0.0563

[[record]]
compound = "COCCOC(=O)N1C(=O)[C@@]2(c3cc(C#CCNC(N)=O)ccc31)[C@H](c1ccccc1OCCO)N1[C@H](c3ccccc3)[C@H](c3ccccc3)OC(=O)[C@H]1[C@@H]2C(=O)NC[C@H](O)c1ccccc1"
readout_kind = "composite z-score"
quantitative_readout = -0.0083

[[record]]
compound = "COC(=O)C(CC#Cc1ccc2c(c1)[C@]1(C(=O)N2)[C@H](C(=O)N2CCCCCCC2)[C@H]2C(=O)O[C@H](c3ccccc3)[C@H](c3ccccc3)N2[C@@H]1c1ccc(O)cc1)C(=O)OC"
readout_kind = "composite z-score"
quantitative_readout = -0.167

[[record]]
compound = "CCOC(=O)C[C@H]1[C@H](OC(=O)c2ccccc2-c2ccccc2)[C@@H](NC(=O)C2CCCCC2)c2cc(OCCCO)ccc2N1C(=O)c1ccccc1"
readout_kind = "composite z-score"
quantitative_readout = -0.041


Asked: Please look at this compound and report its composite z-score: NC(=O)NCC#Cc1ccc2c(c1)[C@]1(C(=O)N2)[C@H](C(=O)N2CCCCCCC2)[C@H]2C(=O)O[C@H](c3ccccc3)[C@H](c3ccccc3)N2[C@@H]1c1ccccc1OCCO
Given back: 0.876

Asked: Determine its reported composite z-score: O=C1OCC=C[C@H]2OC34C=CCN(Cc5ccccc5)C(=O)[C@H]3N(CCCCCO)C(=O)[C@@H]4[C@@H]12 (some centres undefined)
Given back: -0.187

Asked: Return value of composite z-score for input CCOC(=O)C1=CC[C@@H](c2ccccc2)N(S(=O)(=O)c2ccc(C)cc2)[C@H]1C , no commentary.
Given back: 0.0257
